- System: SK-MEL-28 melanoma
- PROTOCOL DETAILS: NCI tumour cell line growth inhibition, 48 h
ASSAY METRIC: TGI

> print(dat)
                                  compound  assay.metric  measurement
1  Cc1ccc2ccccc2c1CC1S(=O)(=O)OCCOS1(=O)=O           TGI      32.8 µM

The following compounds each have a reported value; give each one's TGI.
1. CC1=NNC(N)=N/C1=C/C(Sc1ccc(Cl)cc1)c1cccs1 (stereo not drawn)
2. Cc1ccc(S(=O)(=O)C(C#N)c2nc3ccccc3nc2-n2cccn2)cc1 (stereo not drawn)
3. CC[C@@]1(OC(=O)CN)C(=O)OCc2c1cc1n(c2=O)Cc2cc3cc(N)ccc3nc2-1

### Response
["39.7 µM", "> 100 µM", "> 100 µM"]

The following compounds each have a reported value; give each one's TGI.
1. CC(=O)Oc1ccc2cc(Oc3ccc(Cl)cc3)c(=O)oc2c1
2. CCOC(=O)C1C/C(C)=C(/C)SCCCS1 (stereo not drawn)
3. Cc1ccc([P+](Cc2ccc([N+](=O)[O-])cc2)(c2ccc(C)cc2)c2ccc(C)cc2)cc1

### Response
1. > 100 µM
2. > 100 µM
3. 12.9 µM

The following compounds each have a reported value; give each one's TGI.
1. CCCCC[C@H](O)[C@H](C)C=C1SCCCS1
2. O=C1NC(=O)/C(=C\c2ccncc2)N1
3. [N-]=[N+]=NC1(c2ccccc2)C(=O)Nc2ccccc2C1=O (stereo not drawn)
4. O=C1c2cc(Cl)ccc2-n2c(noc2=O)C2CSCN12 (stereo not drawn)
5. CC(=O)N[C@@H](Cc1ccc(O)cn1)C(=O)NCc1ccc2c(c1)OCO2
6. CCC1OCCN1C(C)C (stereo not drawn)
7. Cc1nnc2n1N=C(CC(=O)c1ccc(O)cc1O)CN2N

### Response
["> 100 µM", "> 100 µM", "> 100 µM", "> 100 µM", "> 100 µM", "92.2 µM", "> 100 µM"]

The following compounds each have a reported value; give each one's TGI.
1. CC1(C)CC(=O)C(/C=N/c2nc(-c3ccc(Br)cc3)cs2)=C(O)C1
2. COc1ccc2c(c1O)[C@@]13C=C(O)C(=O)C=C1[C@@H](C2)N(C)CC3
3. O=C1c2cccnc2C(=O)c2c1c(C(=O)OCCCN1CCOCC1)c1ccccn21
4. C/C(=C(/c1ccc(O)cc1)c1ccc(OCCN2CCCC2)cc1)c1ccccc1
5. Cc1ccc(NCSc2ccc(Cl)cc2)cc1

### Response
> 100 µM
> 100 µM
4.57 µM
3.41 µM
> 100 µM

====

- Test system: DMS 114 small cell lung
- PROTOCOL DETAILS: NCI tumour cell line growth inhibition, 48 h
ASSAY METRIC: TGI

> print(dat)
                           compound            system.tested  measurement
1  COc1ccc(C(=O)Cc2cc(OC)ccc2OC)cc1  DMS 114 small cell lung     > 100 µM

The following compounds each have a reported value; give each one's TGI.
1. CC1=NN(C(=O)CC(=O)Nc2cccc(Cl)c2)C(=O)C1N=Nc1ccc(S(N)(=O)=O)cc1 (stereo unspecified)
2. Cc1cc(N(CCC#N)S(=O)(=O)c2ccccc2)ccc1C=O

### Response
> 100 µM
> 100 µM

The following compounds each have a reported value; give each one's TGI.
1. COc1cc2c3c(c1OC)-c1ccccc1C(C(OC(C)=O)c1ccccc1)C3N(C)CC2 (stereo unspecified)
2. COc1ccc(S(=O)(=O)N/N=C/C(=O)O)cc1
3. CC1CCC(O)C(C(O)CC2CC(=O)N(C)C(=O)C2)C1 (stereo unspecified)
4. O=C1[C@H]2C(c3ccccc3)=NN(C(=O)c3ccccc3)[C@H]2C(=O)N1c1ccccc1

### Response
> 100 µM
1230 µM
> 100 µM
> 100 µM

The following compounds each have a reported value; give each one's TGI.
1. COc1ccc2cccc(C(=N)c3ccc(C)c4c3CCC4)c2c1
2. Cc1ccc2c(c1)c(=O)c1c(NCCN(C)C)ccc3nnn2c31
3. C/C(=N\NS(=O)(=O)c1ccc(C)cc1)c1ccc[n+]([O-])n1
4. CC(C)OP(=O)(OC(C)C)C(N(C)C)P(=O)(OC(C)C)OC(C)C.[Cl][Sn]([Cl])([Cl])[c]1ccccc1

### Response
1. 19.9 µM
2. 18.5 µM
3. > 100 µM
4. 23.1 µM

====

- Tested on: MDA-MB-231 breast
- PROTOCOL DETAILS: NCI tumour cell line growth inhibition, 48 h
ASSAY METRIC: TGI

Some solved entries appear below for comparison.
> print(dat)
                                   compound  measurement
1  CC(C)(C)n1cc(-c2ccnc(NCCNS(=O)(=O)c3ccc(Br)cc3)c2)c(-c2cccc(O)c2)n1      4.07 µM
2  O=C(Nc1cccc2nsnc12)c1cc2c(cc1Cl)Sc1nccn1S2(=O)=O      21.9 µM

The following compounds each have a reported value; give each one's TGI.
1. COc1ccc(/C=C\c2cc(OC)c(OC)c(OC)c2)cc1OP(=O)(O)O
2. Cc1cs/c(=N\C(P(=O)(O)O)P(=O)(O)O)n1C

### Response
> 12.1 µM
> 100 µM

The following compounds each have a reported value; give each one's TGI.
1. N#Cc1c(N)c(-c2ccc(Cl)cc2)c(F)c2ccccc12
2. Cc1ccc([P+](Cc2ccc([N+](=O)[O-])cc2)(c2ccc(C)cc2)c2ccc(C)cc2)cc1
3. O=C1CSC2(CC(/C=C/C=C/c3ccccc3)=NN2c2cccc(S(=O)(=O)O)c2)N1c1nc2ccccc2s1 (centres undefined)
4. CCN(CC)CCC(=O)Nc1ccc(Cn2nnc3c2C(=O)c2nnn(Cc4ccc(NC(=O)CCN(CC)CC)cc4)c2C3=O)cc1
5. CC(=O)Oc1ccc2cc(Oc3ccc(Cl)cc3)c(=O)oc2c1

### Response
["> 100 µM", "7.38 µM", "> 100 µM", "10.2 µM", "> 100 µM"]

====

Consider the following molecules; for each one, report its TGI.
- Test system: HOP-62 NSCLC
- PROTOCOL DETAILS: NCI tumour cell line growth inhibition, 48 h

Some solved entries appear below for comparison.
> print(dat)
                                   molecule  measurement
1                C=CCc1c(O)c2ccccc2[nH]c1=O     > 100 µM
2      CC1=C(C#N)C(N)=C2C(C)=C(C#N)C(N)=C12     > 100 µM
3               O=C1NC(=O)/C(=C\c2ccncc2)N1     > 100 µM
4  c1ccc(C2=NN3CN(N2)c2ccccc2OCCCOc2ccccc23)cc1     > 100 µM
5  O=C1OC(c2ccc(O)cc2)(c2ccc(O)cc2)c2cccc3cccc1c23      38.1 µM
6  CCOC(=O)C1C(c2cc(OC)c(O)c(OC)c2)c2cc3c(cc2OC1(C)O)OCO3 (centres undefined)     > 100 µM
7  O=C1/C(=C/c2ccccc2S)N=C(c2ccccc2)N1c1ccc2c(c1)Sc1cc(N3C(=O)/C(=C/c4ccccc4S)N=C3c3ccccc3)ccc1N2      72.7 µM
8  CCOC(=O)c1c2c(n(C)c1-c1ccccc1)C(=O)C(C)=CC2=O      33.6 µM

The recorded TGI for CC(C)OP(=O)(CP(=O)(OC(C)C)OC(C)C)OC(C)C.[CH3][Sn]([Br])([Br])[Br] is > 100 µM

====

- Test system: BT-549 breast
- PROTOCOL DETAILS: NCI tumour cell line growth inhibition, 48 h
ASSAY METRIC: TGI (µM)
Numbers only, in µM.

Some solved entries appear below for comparison.
> print(dat)
                                   molecule  measurement.unit  measurement
1  COc1cc(S(=O)(=O)Nc2nc(-c3ccc(N4C(=O)/C(=C/c5ccccc5)N=C4c4ccccc4)cc3)cs2)ccc1Cl                µM           75
2   Cc1ccc2ccccc2c1CC1S(=O)(=O)OCCOS1(=O)=O                µM         25.7
3  COc1cc[nH]c1/C=C1\C(=O)Nc2ccc(F)c(C#CC3(O)CCOCC3)c21                µM         1.37
4  [N-]=[N+]=NC1(c2ccccc2)C(=O)Nc2ccccc2C1=O (stereo unspecified)                µM         34.8

Let's switch to this molecule now.
The recorded TGI for COc1ccc(C2=CC(c3cc(OC)c(OC)c(OC)c3)n3ncnc3N2)cc1 (stereo unspecified) is 2.04
